Here the recorded Inhibition is given for each entry.
target: cGMP-specific 3',5'-cyclic phosphodiesterase (Homo sapiens, UniProt O76074); assay: Inhibition of human recombinant PDE5 at 100 uM after 1.5 hrs by fluorescent polarization assay
RESULT_TYPE: Inhibition (%)

> print(dat)
                         compound.structure  result.units  assay.value
1  O=C1[C@H]2Cc3c([nH]c4ccccc34)[C@@H](c3ccccc3Br)N2C(=O)CN1Cc1ccccc1             %         91.9
2  CCN1CC(=O)N2[C@@H](c3ccccc3Br)c3[nH]c4ccccc4c3C[C@H]2C1=O             %         90.3
3  CCN1CC(=O)N2[C@H](c3ccccc3Br)c3[nH]c4ccccc4c3C[C@H]2C1=O             %         89.2
4  CCN1CC(=O)N2[C@@H](c3ccccc3Br)c3[nH]c4ccccc4c3C[C@@H]2C1=O             %         91.7
5  COC(=O)[C@@H]1Cc2c([nH]c3ccccc23)[C@@H](c2ccccc2Br)N1             %         91.1
